Every entry's value here was drawn from ChEMBL document CHEMBL4819020.

Test system: PC-9
Experiment: Antiproliferative activity against human PC-9 cells assessed as inhibition of cell proliferation measured after 72 hrs by MTT assay
Type: functional, cell-based
Settings: PC-9, 72 h
outcome measure: IC50 (µM)
Field format: number, assumed µM, no unit text.

Below, 2 molecules whose answers are already recorded.
test smiles | outcome measure | numeric result
Cc1cc(Nc2ccn(Cc3ccc(C(F)(F)F)cc3)n2)n2nc(SCc3ccc(Br)cc3)nc2n1 | IC50 | 5.58
Cc1cc(Nc2ccn(Cc3nc(C)c4ccccc4n3)n2)n2nc(SCc3ccc(Br)cc3)nc2n1 | IC50 | 5.45

If you can, please state the reported IC50 value of "Cc1cc(Nc2cc(-c3ccccc3)[nH]n2)n2nc(SCc3ccc(Cl)cc3)nc2n1" .
6.71

# input molecule: "Cc1cc(Nc2cc(-c3ccccc3)[nH]n2)n2nc(SCCc3ccccc3)nc2n1" ; wanted: its IC50
4.93

# get_value(readout='IC50', item= "Cc1cc(Nc2cc(-c3ccccc3)[nH]n2)n2nc(SCc3ccc([N+](=O)[O-])cc3)nc2n1" )
7.98

Entry "Cc1cc(Nc2cc(-c3cccs3)[nH]n2)n2nc(SCc3ccc(Br)cc3)nc2n1" : reported IC50 = ?
4.89
